Test system: 997537-175-T-J1-PDC complex spheroid viability
Assay: Anticancer human tumor 997537-175-T-J1-PDC patient-derived colon adenocarcinoma cell line growth inhibition [GQUAD]
Conditions: second compound 0.316 µM; first compound 3.16 µM; stronger effect = lower value
viability, T/C by entry:
I only need the number, in %, no unit after it.

Entry O=C(c1cc(Cc2n[nH]c(=O)c3ccccc23)ccc1F)N1CCN(C(=O)C2CC2)CC1 + Cc1[nH]c2ccc(F)cc2c1-c1nc2c3cccnc3c3ncccc3c2[nH]1 : viability, T/C on 997537-175-T-J1-PDC complex spheroid viability = 98.4

Entry CC(C)(O)C1CCC(Nc2ccc3ncc(-c4cccc(C(F)(F)F)c4)n3n2)CC1 (centres undefined) + Cc1cnc(CNC(=O)c2c(=O)c3ccc(N4CCCN(C)CC4)nc3n3c2sc2ccccc23)cn1 : viability, T/C on 997537-175-T-J1-PDC complex spheroid viability = 31.7

Entry COc1cccc2c1C(=O)c1c(O)c3c(c(O)c1C2=O)CC(O)(C(=O)CO)CC3OC1CC(N)C(O)C(C)O1 (centres undefined) + Cc1cnc(CNC(=O)c2c(=O)c3ccc(N4CCCN(C)CC4)nc3n3c2sc2ccccc23)cn1 : viability, T/C on 997537-175-T-J1-PDC complex spheroid viability = 87

Entry COc1cccc2c1C(=O)c1c(O)c3c(c(O)c1C2=O)CC(O)(C(=O)CO)CC3OC1CC(N)C(O)C(C)O1 (centres undefined) + Cc1[nH]c2ccc(F)cc2c1-c1nc2c3cccnc3c3ncccc3c2[nH]1 : viability, T/C on 997537-175-T-J1-PDC complex spheroid viability = 79.8

Entry COc1ncnc(C2CC2)c1-c1ncc2cnn(Cc3ccc(-c4nc(C(F)(F)F)cn4C(C)C)cc3)c2n1 + CN(C)c1ccc(Nc2c3ccc(NC(=O)CCN4CCCC4)cc3nc3cc(NC(=O)CCN4CCCC4)ccc23)cc1 : viability, T/C on 997537-175-T-J1-PDC complex spheroid viability = 87.5

Entry COc1cc(C2c3cc4c(cc3C(OC3OC5COC(C)OC5C(O)C3O)C3COC(=O)C23)OCO4)cc(OC)c1O (centres undefined) + CN(C)c1ccc(Nc2c3ccc(NC(=O)CCN4CCCC4)cc3nc3cc(NC(=O)CCN4CCCC4)ccc23)cc1 : viability, T/C on 997537-175-T-J1-PDC complex spheroid viability = 92.3

Entry CC1COCCN1c1cc(C2(S(C)(=N)=O)CC2)nc(-c2ccnc3[nH]ccc23)n1 (centres undefined) + Cc1cnc(CNC(=O)c2c(=O)c3ccc(N4CCCN(C)CC4)nc3n3c2sc2ccccc23)cn1 : viability, T/C on 997537-175-T-J1-PDC complex spheroid viability = 55.4

Entry COc1ncnc(C2CC2)c1-c1ncc2cnn(Cc3ccc(-c4nc(C(F)(F)F)cn4C(C)C)cc3)c2n1 + Cc1[nH]c2ccc(F)cc2c1-c1nc2c3cccnc3c3ncccc3c2[nH]1 : viability, T/C on 997537-175-T-J1-PDC complex spheroid viability = 91.8

Entry CCCS(=O)(=O)Nc1ccc(F)c(C(=O)c2c[nH]c3ncc(-c4ccc(Cl)cc4)cc23)c1F + Cc1[nH]c2ccc(F)cc2c1-c1nc2c3cccnc3c3ncccc3c2[nH]1 : viability, T/C on 997537-175-T-J1-PDC complex spheroid viability = 83.5

Entry O=c1[nH]cc(F)c(=O)[nH]1 + CN(C)c1ccc(Nc2c3ccc(NC(=O)CCN4CCCC4)cc3nc3cc(NC(=O)CCN4CCCC4)ccc23)cc1 : viability, T/C on 997537-175-T-J1-PDC complex spheroid viability = 99.3

---

IC50 by entry:
Tested on: 997537-175-T-J1-PDC complex spheroid viability
Assay: Anticancer human tumor 997537-175-T-J1-PDC cell line growth inhibition [GQUAD];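 also: spheroids exposed to the agents for 7 days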
Conditions: curve of first compound; second compound 1 µM

A selection of reference data follows.
compound: COc1cc(C2c3cc4c(cc3C(OC3OC5COC(C)OC5C(O)C3O)C3COC(=O)C23)OCO4)cc(OC)c1O (configuration not stated) + Cc1cnc(CNC(=O)c2c(=O)c3ccc(N4CCCN(C)CC4)nc3n3c2sc2ccccc23)cn1
IC50: > 10 µM

compound: C=CC(=O)N1CCN(c2nc(=O)n(-c3c(C)ccnc3C(C)C)c3nc(-c4c(O)cccc4F)c(F)cc23)C(C)C1 (configuration not stated) + Cc1[nH]c2ccc(F)cc2c1-c1nc2c3cccnc3c3ncccc3c2[nH]1
IC50: > 10 µM

compound: COc1ncnc(C2CC2)c1-c1ncc2cnn(Cc3ccc(-c4nc(C(F)(F)F)cn4C(C)C)cc3)c2n1 + CN(C)c1ccc(Nc2c3ccc(NC(=O)CCN4CCCC4)cc3nc3cc(NC(=O)CCN4CCCC4)ccc23)cc1
IC50: > 10 µM

compound: CC1COCCN1c1cc(-c2ccnn2C)c2ccnc(-c3ccn[nH]3)c2n1 (configuration not stated) + Cc1cnc(CNC(=O)c2c(=O)c3ccc(N4CCCN(C)CC4)nc3n3c2sc2ccccc23)cn1
IC50: > 10 µM

compound: C=CC(=O)N1CCN(c2nc(=O)n(-c3c(C)ccnc3C(C)C)c3nc(-c4c(O)cccc4F)c(F)cc23)C(C)C1 (configuration not stated) + CN(C)c1ccc(Nc2c3ccc(NC(=O)CCN4CCCC4)cc3nc3cc(NC(=O)CCN4CCCC4)ccc23)cc1
IC50: > 10 µM

compound: CC[C@@]1(O)C(=O)OCc2c1cc1n(c2=O)Cc2cc3c(CN(C)C)c(O)ccc3nc2-1 + Cc1[nH]c2ccc(F)cc2c1-c1nc2c3cccnc3c3ncccc3c2[nH]1
IC50: > 0.316 µM

In plain terms, COc1cc(C2c3cc4c(cc3C(OC3OC5COC(C)OC5C(O)C3O)C3COC(=O)C23)OCO4)cc(OC)c1O (configuration not stated) + CN(C)c1ccc(Nc2c3ccc(NC(=O)CCN4CCCC4)cc3nc3cc(NC(=O)CCN4CCCC4)ccc23)cc1 has a documented IC50 of > 10 µM

In plain terms, CC1COCCN1c1cc(C2(O)CC3CCC(C2)O3)c2cnn(-c3ccn[nH]3)c2n1 (configuration not stated) + Cc1cnc(CNC(=O)c2c(=O)c3ccc(N4CCCN(C)CC4)nc3n3c2sc2ccccc23)cn1 has a documented IC50 of < 0.0316 µM

---

pIC50 by entry:
Test system: 997537-175-T-J1-PDC complex spheroid viability
Assay: Anticancer human tumor 997537-175-T-J1-PDC cell line growth inhibition [GQUAD];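 also: spheroids exposed to the agents for 7 days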
Conditions: curve of first compound; second compound 0.0316 µM
pIC50: −log10 of the molar value.

A selection of reference data follows.
compound: COc1cc(C2c3cc4c(cc3C(OC3OC5COC(C)OC5C(O)C3O)C3COC(=O)C23)OCO4)cc(OC)c1O (stereo not drawn) + Cc1cnc(CNC(=O)c2c(=O)c3ccc(N4CCCN(C)CC4)nc3n3c2sc2ccccc23)cn1
pIC50: < 5.00

compound: Cn1ncnc1[C@H]1c2n[nH]c(=O)c3cc(F)cc(c23)N[C@@H]1c1ccc(F)cc1 + Cc1[nH]c2ccc(F)cc2c1-c1nc2c3cccnc3c3ncccc3c2[nH]1
pIC50: < 6.50

In plain terms, O=C(c1cc(Cc2n[nH]c(=O)c3ccccc23)ccc1F)N1CCN(C(=O)C2CC2)CC1 + Cc1cnc(CNC(=O)c2c(=O)c3ccc(N4CCCN(C)CC4)nc3n3c2sc2ccccc23)cn1 has a documented pIC50 of < 5.00

---

Tested on: 997537-175-T-J1-PDC complex spheroid viability
Test: Anticancer human tumor 997537-175-T-J1-PDC cell line growth inhibition [GQUAD];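 also: spheroids exposed to the agents for 7 days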;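 as to viability, T/C: 100% = DMSO vehicle control viability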
Details: second compound 0.1 µM; first compound 0.1 µM; stronger effect = lower value
measure.name: viability, T/C (%)
I only need the number, in %, no unit after it.

compound: Nc1ccn(C2OC(CO)C(O)C2(F)F)c(=O)n1 (stereo not drawn) + CN(C)c1ccc(Nc2c3ccc(NC(=O)CCN4CCCC4)cc3nc3cc(NC(=O)CCN4CCCC4)ccc23)cc1
measure.name: viability, T/C
value.measured: 98.5
//
compound: O=C(NO)c1cnc(N2CCN(S(=O)(=O)c3ccc4ccccc4c3)CC2)nc1 + Cc1cnc(CNC(=O)c2c(=O)c3ccc(N4CCCN(C)CC4)nc3n3c2sc2ccccc23)cn1
measure.name: viability, T/C
value.measured: 97
//
compound: COc1ccc([C@@H](O)c2cc(-c3ncnc4cc(N5CCOCC5)ccc34)c(F)cc2Cl)nn1 + CN(C)c1ccc(Nc2c3ccc(NC(=O)CCN4CCCC4)cc3nc3cc(NC(=O)CCN4CCCC4)ccc23)cc1
measure.name: viability, T/C
value.measured: 90.7
//
compound: O=C(c1cc(Cc2n[nH]c(=O)c3ccccc23)ccc1F)N1CCN(C(=O)C2CC2)CC1 + Cc1[nH]c2ccc(F)cc2c1-c1nc2c3cccnc3c3ncccc3c2[nH]1
measure.name: viability, T/C
value.measured: 95.7
//
compound: C#Cc1c(F)ccc2cc(O)cc(-c3ncc4c(N5CC6CCC(C5)N6)nc(OCC56CCCN5CC(F)C6)nc4c3F)c12 (stereo not drawn) + Cc1cnc(CNC(=O)c2c(=O)c3ccc(N4CCCN(C)CC4)nc3n3c2sc2ccccc23)cn1
measure.name: viability, T/C
value.measured: 90.2
//
compound: C#Cc1c(F)ccc2cc(O)cc(-c3ncc4c(N5CC6CCC(C5)N6)nc(OCC56CCCN5CC(F)C6)nc4c3F)c12 (stereo not drawn) + CN(C)c1ccc(Nc2c3ccc(NC(=O)CCN4CCCC4)cc3nc3cc(NC(=O)CCN4CCCC4)ccc23)cc1
measure.name: viability, T/C
value.measured: 89.4
//
compound: CC(C)n1c(=O)n(C)c2cnc3cc(F)c(-c4ccc(OCCCN5CCCCC5)nc4)cc3c21 + CN(C)c1ccc(Nc2c3ccc(NC(=O)CCN4CCCC4)cc3nc3cc(NC(=O)CCN4CCCC4)ccc23)cc1
measure.name: viability, T/C
value.measured: 86
//
compound: COc1cccc2c1C(=O)c1c(O)c3c(c(O)c1C2=O)CC(O)(C(=O)CO)CC3OC1CC(N)C(O)C(C)O1 (stereo not drawn) + Cc1cnc(CNC(=O)c2c(=O)c3ccc(N4CCCN(C)CC4)nc3n3c2sc2ccccc23)cn1
measure.name: viability, T/C
value.measured: 76.5

In plain terms, COc1ncnc(C2CC2)c1-c1ncc2cnn(Cc3ccc(-c4nc(C(F)(F)F)cn4C(C)C)cc3)c2n1 + Cc1cnc(CNC(=O)c2c(=O)c3ccc(N4CCCN(C)CC4)nc3n3c2sc2ccccc23)cn1 has a documented viability, T/C of 69

In plain terms, C=CCn1c(=O)c2cnc(Nc3ccc(N4CCN(C)CC4)cc3)nc2n1-c1cccc(C(C)(C)O)n1 + Cc1cnc(CNC(=O)c2c(=O)c3ccc(N4CCCN(C)CC4)nc3n3c2sc2ccccc23)cn1 has a documented viability, T/C of 104

In plain terms, CCCS(=O)(=O)Nc1ccc(F)c(C(=O)c2c[nH]c3ncc(-c4ccc(Cl)cc4)cc23)c1F + CN(C)c1ccc(Nc2c3ccc(NC(=O)CCN4CCCC4)cc3nc3cc(NC(=O)CCN4CCCC4)ccc23)cc1 has a documented viability, T/C of 73.1

In plain terms, CC(C)(O)C1CCC(Nc2ccc3ncc(-c4cccc(C(F)(F)F)c4)n3n2)CC1 (stereo not drawn) + Cc1cnc(CNC(=O)c2c(=O)c3ccc(N4CCCN(C)CC4)nc3n3c2sc2ccccc23)cn1 has a documented viability, T/C of 80.2

In plain terms, CC1COCCN1c1cc(C2(O)CC3CCC(C2)O3)c2cnn(-c3ccn[nH]3)c2n1 (stereo not drawn) + Cc1cnc(CNC(=O)c2c(=O)c3ccc(N4CCCN(C)CC4)nc3n3c2sc2ccccc23)cn1 has a documented viability, T/C of 49
